# tgt: Cyclin-dependent kinase 6 (Homo sapiens)
# experimental setup: at 0.1 µM
Entries annotated with measured inhibition
Hi! Could you send only the number? It should be in %, unit omitted.

Give the measured inhibition of "Cc1ccc2c(-c3ccnc(Nc4ccccc4)n3)c(-c3ccc(F)cc3)nn2n1" .
3.66

---

# tgt: Tyrosine-protein kinase Mer (Homo sapiens)
# experimental setup: at 1 µM
Would you mind classing the entries by inhibition? Ranges: low = under 3%, medium = from 3% up to 7%, high = 7% and over

See these solved cases before continuing.
Class label required: "O=C(O[C@H]1CN[C@H](C#Cc2cc3ncnc(Nc4ccc(Cc5ccccc5)cc4)c3s2)C1)N1CCOCC1"
low

Kindly state the category for this molecule: "CCc1nn2ncccc2c1-c1ccnc(NC2CC2)n1"
medium

Further cases:
Each molecule maps to one class by inhibition. Which class for "CCn1c(-c2nonc2N)nc2ccccc21" ?
low

Into which bin does this molecule go? "c1ccc(-c2nc3n(c2-c2ccc4c(c2)OCO4)CCC3)nc1"
low

// return the class label for "COc1ccc(CNC(=O)c2ccc(-c3cc(-c4nnc(C)o4)ccc3C)cc2)cc1"
medium

Given "CCn1c(-c2nonc2N)nc2c(C#CC(C)(C)O)nc(OC[C@H](N)c3ccccc3)cc21" , name the class its inhibition places it in.
medium

Hi there! Could you help me figure out the category for "CS(=O)(=O)CCNCc1ccc(-c2ccc3ncnc(Nc4ccc(OCc5ccccc5)c(C(F)(F)F)c4)c3c2)o1" please?
low

Just checking, what class would you give "c1ccc(COc2ccc(Nc3ncnc4ccc(-c5ccco5)cc34)cc2)cc1" here?
high

Exercise: read the entry "Cc1ccc(O)cc1Nc1ccnc2cc(-c3ccccn3)ccc12" and state which class it falls under.
medium

Categorize the following entry: "CCn1c(-c2nonc2N)nc2cnc(Oc3cccc(NC(=O)c4ccc(N(C)C)cc4)c3)cc21"
low

Please indicate the class for "COc1cccc(-c2c[nH]c3c(N/N=C/c4ccncc4)ncnc23)c1" based on its inhibition.
high

Please classify: "[O-][S+]1CCN(Cc2ccc(-c3ccc4ncnc(Nc5ccc(OCc6cccc(F)c6)c(Cl)c5)c4c3)o2)CC1"
high

Lab log: "COC(=O)Nc1nc2ccc(S(=O)(=O)c3ccc(NC(=O)Nc4cc(C(F)(F)F)ccc4F)cc3)cc2[nH]1" — assign inhibition category
medium

Into which bin does this molecule go? "O=S(=O)(CCNCc1ccc(-c2ccc3ncnc(Nc4ccc(OCc5cccc(F)c5)c(Cl)c4)c3c2)o1)c1ccccc1"
high

Which band does "COc1ccc(-c2nn3ncccc3c2-c2ccnc(Nc3ccc4c(c3)OCCO4)n2)cc1" fall in?
high

Using the reported inhibition, which band applies to "COC(=O)c1sc(-n2cnc3cc(OC)c(OC)cc32)cc1OCc1ccccc1C(F)(F)F" ?
low

Exam item: assign "COc1ccc(-c2oc3ncnc(N)c3c2-c2ccc(NC(=O)Nc3cc(C(F)(F)F)ccc3F)cc2)cc1" to the correct category.
high
